- SYSTEM NAME: T1, BMP2 homodimer (UniProt P12643 283-396)
- T1 construct: bone morphogenetic protein 2; source: bought: RND Systems #355-BM-010/CF
- T1 sequence (P12643 283-396): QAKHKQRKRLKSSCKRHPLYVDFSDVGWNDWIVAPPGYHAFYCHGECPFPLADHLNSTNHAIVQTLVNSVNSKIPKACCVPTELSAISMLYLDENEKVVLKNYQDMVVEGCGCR
- METHOD SUMMARY: SPR; Biacore T200, CM5 chip; BMP2, BMP6 or BMP2/6 immobilised by amine coupling (50 μg/ml); purified bacterial untagged ERFE N-terminal variants or synthetic 53-mer segments as analyte; HBS-EP pH 7.4, 50 μl/min; KD = koff/kon at five concentrations
- ASSAY CONTEXT: both partners purified
OBSERVABLE: pKd
Give bare numbers, as −log10 of the molar value.

[in] Identify the reported pKd for the following entry. ERFE N terminus ΔCollagen, 43-148 del109-125 (bacterial) (domain or fragment, human, UniProt Q4G0M1 43-148, looked up, also called bacterial ΔCollagen N terminus; source: E. coli Rosetta2(DE3)pLysS, purified (Ni-NTA, TEV cleavage, reverse IMAC); not shown: His6, N-terminal, cleaved; MBP, N-terminal, cleaved) EPPPGNELPRGPGESRAGPAARPPEPTAERAHSVDPRDAWMLFVRQSDKGVNGKKRSRGKAKKLKFIIPPEALLKEFQLLLKGAVRQRE
[out] 8.50

meta.source: paper PMC10692919
